Test system: adult cat fleas
Assay: Effect on cat flea (1): glass tube residue contact test, knock-down and mortality
Type: in vivo, cat flea (Ctenocephalides felis)
Design: unit not given here
Settings: 0.1 mg/tube
Catalogue of After 3 hours (KD) knocking-down rate readings, one per entry.
Write no unit; give the number alone.

Below, 2 molecules whose answers are already recorded.
FC(Cl)(Cl)Sc1cn(-c2c(Cl)cc(C(F)(F)F)cc2Cl)c2ccc(Cl)cc12	0
Cc1c(SC(F)(Cl)Cl)c2ccccc2n1-c1ncc(C(F)(F)F)cc1Cl	0

Using the record for FC(F)(F)Sc1cn(-c2c(Cl)cc(C(F)(F)F)cc2Cl)c2ccccc12 , report its After 3 hours (KD) knocking-down rate.
10

Using the record for O=S(=O)(c1cn(-c2c(Cl)cc(C(F)(F)F)cc2Cl)c2ccccc12)C(F)(Cl)Cl , report its After 3 hours (KD) knocking-down rate.
0

Using the record for FC(Cl)(Cl)Sc1cn(-c2ncc(C(F)(F)F)cc2Cl)c2ccc(Cl)cc12 , report its After 3 hours (KD) knocking-down rate.
0

====

Test system: adult cat fleas
Assay: Effect on cat flea (1): glass tube residue contact test, knock-down and mortality
Assay type: in vivo, cat flea (Ctenocephalides felis)
Settings: 0.01 mg/tube
Catalogue of After 2 days (mortality) readings, one per entry.
Give the number; % is assumed, so skip it.

O=S(=O)(c1cn(-c2c(Cl)cc(C(F)(F)F)cc2Cl)c2ccccc12)C(F)(Cl)Cl	20
Cc1c(SC(F)(Cl)Cl)c2ccccc2n1-c1ncc(C(F)(F)F)cc1Cl	100

Request - read-out After 2 days (mortality) | tested on adult cat fleas | molecule FC(Cl)(Cl)Sc1cn(-c2ncc(C(F)(F)F)cc2Cl)c2ccccc12
100

Request - read-out After 2 days (mortality) | tested on adult cat fleas | molecule FC(Cl)(Cl)Sc1cn(-c2c(Cl)cc(C(F)(F)F)cc2Cl)c2ccc(Cl)cc12
90

Request - read-out After 2 days (mortality) | tested on adult cat fleas | molecule FC(Cl)(Cl)Sc1cn(-c2ncc(C(F)(F)F)cc2Cl)c2ccc(Cl)cc12
20

====

Test system: adult cat fleas
Test: Effect on cat flea (1): glass tube residue contact test, knock-down and mortality
Assay type: in vivo, cat flea (Ctenocephalides felis)
Conditions: 0.001 mg/tube
Catalogue of After 2 days (mortality) readings, one per entry.
Give the number; % is assumed, so skip it.

Below, 3 compounds whose answers are already recorded.
FC(F)(F)Sc1cn(-c2c(Cl)cc(C(F)(F)F)cc2Cl)c2ccccc12	30
Fc1ccc2c(c1)c(SC(F)(Cl)Cl)cn2-c1ncc(C(F)(F)F)cc1Cl	0
Cc1c(SC(F)(Cl)Cl)c2ccccc2n1-c1ncc(C(F)(F)F)cc1Cl	30

Using the record for FC(Cl)(Cl)Sc1cn(-c2ncc(C(F)(F)F)cc2Cl)c2ccc(Cl)cc12 , report its After 2 days (mortality).
20

====

System: std:ddy strain male mice
Assay: Toxicity to mouse, administration into the stomach
Format: in vivo
Details: 100 mg/kg
Protocol: The compound listed in Table 1 or Fipronil was dissolved in olive oil to a predetermined concentration, and the resulting solution was directly administered into the stomachs of std:ddy strain male mice by the use of a probe. The dose was 30 mg/kg or 100 mg/kg. Whether the mice were alive or dead was observed 3 hours, 1 day, 7 days and 14 days after the administration.
Catalogue of Cumulative mortality After 1 day readings, one per entry.

Below, 2 molecules whose answers are already recorded.
FC(F)(F)Sc1cn(-c2c(Cl)cc(C(F)(F)F)cc2Cl)c2ccccc12	0/5
FC(Cl)(Cl)Sc1cn(-c2c(Cl)cc(C(F)(F)F)cc2Cl)c2ccccc12	0/5

Using the record for N#Cc1nn(-c2c(Cl)cc(C(F)(F)F)cc2Cl)c(N)c1[S+]([O-])C(F)(F)F (stereo not shown) [Fipronil, reference compound] , report its Cumulative mortality After 1 day.
5/5

Using the record for Cc1c(SC(F)(Cl)Cl)c2ccccc2n1-c1ncc(C(F)(F)F)cc1Cl , report its Cumulative mortality After 1 day.
0/5

====

System: std:ddy strain male mice
Assay: Toxicity to mouse, administration into the stomach
Type: in vivo
Settings: 30 mg/kg
Procedure: The compound listed in Table 1 or Fipronil was dissolved in olive oil to a predetermined concentration, and the resulting solution was directly administered into the stomachs of std:ddy strain male mice by the use of a probe. The dose was 30 mg/kg or 100 mg/kg. Whether the mice were alive or dead was observed 3 hours, 1 day, 7 days and 14 days after the administration.
MEASURED_QUANTITY: Cumulative mortality After 7 days

Below, 3 compounds whose answers are already recorded.
N#Cc1nn(-c2c(Cl)cc(C(F)(F)F)cc2Cl)c(N)c1[S+]([O-])C(F)(F)F (stereo not shown) [Fipronil, reference compound]	1/5
Cc1c(SC(F)(Cl)Cl)c2ccccc2n1-c1ncc(C(F)(F)F)cc1Cl	0/5
FC(F)(F)Sc1cn(-c2c(Cl)cc(C(F)(F)F)cc2Cl)c2ccccc12	0/5

Alright, here's another compound for you.
Using the record for FC(Cl)(Cl)Sc1cn(-c2c(Cl)cc(C(F)(F)F)cc2Cl)c2ccccc12 , report its Cumulative mortality After 7 days.
0/5

====

Test system: std:ddy strain male mice
Test: Toxicity to mouse, administration into the stomach
Type: in vivo
Conditions: 30 mg/kg
MEASURED_QUANTITY: Cumulative mortality After 14 days

FC(Cl)(Cl)Sc1cn(-c2c(Cl)cc(C(F)(F)F)cc2Cl)c2ccccc12	0/5
FC(F)(F)Sc1cn(-c2c(Cl)cc(C(F)(F)F)cc2Cl)c2ccccc12	0/5
N#Cc1nn(-c2c(Cl)cc(C(F)(F)F)cc2Cl)c(N)c1[S+]([O-])C(F)(F)F (stereo not shown) [Fipronil, reference compound]	1/5

Alright, here's another compound for you.
Using the record for Cc1c(SC(F)(Cl)Cl)c2ccccc2n1-c1ncc(C(F)(F)F)cc1Cl , report its Cumulative mortality After 14 days.
0/5

====

Test system: adult cat fleas
Test: Effect on cat flea (1): glass tube residue contact test, knock-down and mortality
Type: in vivo, cat flea (Ctenocephalides felis)
Details: 0.1 mg/tube
Catalogue of After 1 day (mortality) readings, one per entry.
Give the number; % is assumed, so skip it.

Below, 2 molecules whose answers are already recorded.
Cc1c(SC(F)(Cl)Cl)c2ccccc2n1-c1ncc(C(F)(F)F)cc1Cl	100
FC(Cl)(Cl)Sc1cn(-c2ncc(C(F)(F)F)cc2Cl)c2ccc(Cl)cc12	40

Request - read-out After 1 day (mortality) | tested on adult cat fleas | molecule Fc1ccc2c(c1)c(SC(F)(Cl)Cl)cn2-c1ncc(C(F)(F)F)cc1Cl
100

Request - read-out After 1 day (mortality) | tested on adult cat fleas | molecule FC(Cl)(Cl)Sc1cn(-c2c(Cl)cc(C(F)(F)F)cc2Cl)c2ccccc12
100

Request - read-out After 1 day (mortality) | tested on adult cat fleas | molecule O=S(=O)(c1cn(-c2c(Cl)cc(C(F)(F)F)cc2Cl)c2ccccc12)C(F)(Cl)Cl
30

Request - read-out After 1 day (mortality) | tested on adult cat fleas | molecule FC(F)(F)Sc1cn(-c2c(Cl)cc(C(F)(F)F)cc2Cl)c2ccccc12
100

Request - read-out After 1 day (mortality) | tested on adult cat fleas | molecule FC(Cl)(Cl)Sc1cn(-c2c(Cl)cc(C(F)(F)F)cc2Cl)c2ccc(Cl)cc12
60

Request - read-out After 1 day (mortality) | tested on adult cat fleas | molecule N#Cc1nn(-c2c(Cl)cc(C(F)(F)F)cc2Cl)c(N)c1[S+]([O-])C(F)(F)F (stereo not drawn) [Fipronil, reference compound]
100

Request - read-out After 1 day (mortality) | tested on adult cat fleas | molecule FC(Cl)(Cl)Sc1cn(-c2ncc(C(F)(F)F)cc2Cl)c2ccccc12
100

====

Tested on: adult cat fleas
Assay: Effect on cat flea (1): glass tube residue contact test, knock-down and mortality
Format: in vivo, cat flea (Ctenocephalides felis)
Conditions: 1 mg/tube
Catalogue of After 1 day (mortality) readings, one per entry.
Give the number; % is assumed, so skip it.

Below, 8 molecules whose answers are already recorded.
Fc1ccc2c(c1)c(SC(F)(Cl)Cl)cn2-c1ncc(C(F)(F)F)cc1Cl	100
O=S(=O)(c1cn(-c2c(Cl)cc(C(F)(F)F)cc2Cl)c2ccccc12)C(F)(Cl)Cl	100
FC(F)(F)Sc1cn(-c2c(Cl)cc(C(F)(F)F)cc2Cl)c2ccccc12	90
Cc1c(SC(F)(Cl)Cl)c2ccccc2n1-c1ncc(C(F)(F)F)cc1Cl	100
FC(Cl)(Cl)Sc1cn(-c2c(Cl)cc(C(F)(F)F)cc2Cl)c2ccc(Cl)cc12	100
N#Cc1nn(-c2c(Cl)cc(C(F)(F)F)cc2Cl)c(N)c1[S+]([O-])C(F)(F)F (stereo not drawn) [Fipronil, reference compound]	100
FC(Cl)(Cl)Sc1cn(-c2ncc(C(F)(F)F)cc2Cl)c2ccccc12	100
FC(Cl)(Cl)Sc1cn(-c2c(Cl)cc(C(F)(F)F)cc2Cl)c2ccccc12	100

Alright, here's another molecule for you.
Using the record for FC(Cl)(Cl)Sc1cn(-c2ncc(C(F)(F)F)cc2Cl)c2ccc(Cl)cc12 , report its After 1 day (mortality).
50
